binders and their reported Signal (FLU)
- targetDesc: T1, human DR3 (TNFRSF25) expressed on cells (human, UniProt Q93038 25-417)
- T1 sequence: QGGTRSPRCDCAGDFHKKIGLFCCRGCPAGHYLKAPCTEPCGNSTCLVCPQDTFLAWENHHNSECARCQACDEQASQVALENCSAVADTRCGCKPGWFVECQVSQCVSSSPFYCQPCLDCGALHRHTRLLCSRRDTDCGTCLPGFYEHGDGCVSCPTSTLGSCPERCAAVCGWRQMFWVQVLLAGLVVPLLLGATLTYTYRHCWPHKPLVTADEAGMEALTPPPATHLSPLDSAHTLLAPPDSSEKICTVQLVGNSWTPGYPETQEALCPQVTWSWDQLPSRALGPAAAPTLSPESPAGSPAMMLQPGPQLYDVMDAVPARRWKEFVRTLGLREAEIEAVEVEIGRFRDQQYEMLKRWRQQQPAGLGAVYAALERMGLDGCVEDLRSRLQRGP
- measurementProtocol: cell-based or functional assay
Lab book: enter the figure in FLU, no units written.

Consider the reported Signal (FLU) for these binders:
binder="VHg2/VLg2 (antibody, human IgG1, V domains shown, human IgG1) VH: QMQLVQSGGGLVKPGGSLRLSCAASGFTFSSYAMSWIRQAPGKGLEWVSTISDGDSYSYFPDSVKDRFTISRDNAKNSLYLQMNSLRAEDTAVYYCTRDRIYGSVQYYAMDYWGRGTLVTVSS VL: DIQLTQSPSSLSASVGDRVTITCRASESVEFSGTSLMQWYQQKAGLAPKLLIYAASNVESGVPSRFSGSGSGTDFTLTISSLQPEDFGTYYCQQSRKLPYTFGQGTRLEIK" reportedproperty="Signal (FLU)" quantitativereadout=2.5e+06
binder="VHg9/VLg4 (antibody, human IgG1, V domains shown) VH: EVQLVESGGGLVKPGGSLRLSCAASGFTFSSYAMSWVRQAPGKGLEWVSTISDGDSYSYFPDSVKDRFTISRDNAKNSLYLQMNSLRAEDTAVYYCARDRIYGSVQYYAMDYWGQGTLVTVSS VL: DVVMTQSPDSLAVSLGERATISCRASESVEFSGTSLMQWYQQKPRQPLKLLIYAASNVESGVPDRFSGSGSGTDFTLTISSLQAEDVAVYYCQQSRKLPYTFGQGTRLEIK" reportedproperty="Signal (FLU)" quantitativereadout=2.96e+06
binder="VHg1/VLg13 (antibody, human IgG1, V domains shown) VH: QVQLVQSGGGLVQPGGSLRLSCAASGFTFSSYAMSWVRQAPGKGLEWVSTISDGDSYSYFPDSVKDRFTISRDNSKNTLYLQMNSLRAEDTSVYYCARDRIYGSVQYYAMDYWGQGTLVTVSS VL: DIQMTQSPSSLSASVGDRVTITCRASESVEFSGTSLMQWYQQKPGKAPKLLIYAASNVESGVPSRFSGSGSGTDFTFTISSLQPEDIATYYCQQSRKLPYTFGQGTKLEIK" reportedproperty="Signal (FLU)" quantitativereadout=2.81e+06
binder="VHg10/VLg2 (antibody, human IgG1, V domains shown) VH: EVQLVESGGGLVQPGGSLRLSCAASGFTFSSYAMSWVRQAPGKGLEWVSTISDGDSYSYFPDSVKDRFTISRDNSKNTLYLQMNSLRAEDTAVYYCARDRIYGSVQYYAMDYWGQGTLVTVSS VL: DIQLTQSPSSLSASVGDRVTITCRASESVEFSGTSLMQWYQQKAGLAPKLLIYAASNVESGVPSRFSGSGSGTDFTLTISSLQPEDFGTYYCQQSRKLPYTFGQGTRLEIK" reportedproperty="Signal (FLU)" quantitativereadout=2.84e+06
binder="VHg10/VLg5 (antibody, human IgG1, V domains shown, human IgG1) VH: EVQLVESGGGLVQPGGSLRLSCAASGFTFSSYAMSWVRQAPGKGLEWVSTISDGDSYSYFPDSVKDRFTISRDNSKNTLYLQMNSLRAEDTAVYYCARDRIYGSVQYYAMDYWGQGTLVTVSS VL: EIVLTQSPGTLSLSPGERGTLSCRASESVEFSGTSLMQWYQQKPGQAPRLLIYAASNVESGIPDRFSGSGSETDFTLTISRLEPEDLAVYYCQQSRKLPYTFGQGTRLEIK" reportedproperty="Signal (FLU)" quantitativereadout=3.08e+06

In: Report Signal (FLU) for VHg9/VLg12 (antibody, human IgG1, V domains shown) VH: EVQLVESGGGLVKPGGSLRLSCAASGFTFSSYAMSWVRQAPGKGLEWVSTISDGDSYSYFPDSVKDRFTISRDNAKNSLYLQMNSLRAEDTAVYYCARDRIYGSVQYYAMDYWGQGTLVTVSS VL: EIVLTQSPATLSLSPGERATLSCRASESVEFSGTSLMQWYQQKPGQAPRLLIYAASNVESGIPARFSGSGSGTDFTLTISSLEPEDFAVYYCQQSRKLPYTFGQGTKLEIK please.
Out: 682000

In: Consider the binder VHg3/mVL (antibody, human IgG1, V domains shown) VH: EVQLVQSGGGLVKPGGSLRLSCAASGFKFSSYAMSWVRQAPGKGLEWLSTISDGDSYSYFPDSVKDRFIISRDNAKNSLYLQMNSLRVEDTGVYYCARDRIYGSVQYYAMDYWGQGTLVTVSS VL: DIVLTQSPASLAVSLGQRATISCRASESVEFSGTSLMQWYQQRPGLPPKLLIYAASNVESGVPARFSGSGSGTDFSLNIHPVEEDDIAMYFCQQSRKLPYTFGGGTKLEIN and give its measured Signal (FLU).
Out: 2.86e+06

In: Looking for the measured Signal (FLU) of VHg3/VLg1 (antibody, human IgG1, V domains shown) VH: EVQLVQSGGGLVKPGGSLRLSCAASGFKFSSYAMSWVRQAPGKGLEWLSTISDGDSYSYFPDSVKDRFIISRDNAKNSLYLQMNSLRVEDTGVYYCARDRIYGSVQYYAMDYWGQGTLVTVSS VL: DVVMTQSPDSLAVSLGERATINCRASESVEFSGTSLMQWYQQKPGQPPKLLIYAASNVESGVPDRFSGSGSGTDFTLTISSLQAEDVVVYYCQQSRKLPYTFGGGTKVEIK , can you help?
Out: 2.46e+06

In: // lookup Signal (FLU) for VHg10/VLg6 (antibody, human IgG1, V domains shown, human IgG1) VH: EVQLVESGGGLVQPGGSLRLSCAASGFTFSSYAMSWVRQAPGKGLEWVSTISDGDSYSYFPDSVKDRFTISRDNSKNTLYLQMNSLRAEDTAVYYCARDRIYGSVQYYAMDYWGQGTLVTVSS VL: DVVMTQSPPSLPVTPGEPASISCRASESVEFSGTSLMQWYLQKPGQSPQVLIYAASNVESGVPDRFSGSGSGTDFTLKISRVEAEDVGVYYCQQSRKLPYTFGQGTRLEIK
Out: 2.75e+06

In: What does the data say about its Signal (FLU)? Entry: VHg1/mVL (antibody, human IgG1, V domains shown) VH: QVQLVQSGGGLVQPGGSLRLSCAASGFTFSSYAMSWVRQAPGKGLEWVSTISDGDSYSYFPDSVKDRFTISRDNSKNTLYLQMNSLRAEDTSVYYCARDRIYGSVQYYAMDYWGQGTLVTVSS VL: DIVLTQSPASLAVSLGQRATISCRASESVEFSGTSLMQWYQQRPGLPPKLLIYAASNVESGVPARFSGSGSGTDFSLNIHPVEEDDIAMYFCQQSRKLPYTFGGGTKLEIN
Out: 2.43e+06

These data points were gathered from patent WO2025083273A1.
